Origin of the recorded values: patent US20230312580A1

ASSAY: PK mouse (IV and oral)
Format: in vivo
CONDITION_SUMMARY: plasma; mouse 2 mg/kg IV; read-out: Cl plasma
OBSERVABLE: clearance (L/h/kg)
Numeric answer only, unit L/h/kg assumed.

Task item: // lookup clearance for C[C@@H]1[C@H]2CCN(C(=O)c3ncc(-c4ccnc(C#N)c4)o3)[C@H]2CN1C#N (single isomer, unassigned) [Example 1]
Reply: 1.14

----------
Tested on: HCT116 human colorectal carcinoma cells
ASSAY: In vitro cytotoxicity (Cell Tox), alamarBlue
Type: cell-based
CONDITION_SUMMARY: HCT-116, 96-hour continual compound exposure
OBSERVABLE: EC50

Task item: Notebook: pull reported EC50 for HCT116 human colorectal carcinoma cells, entry C[C@@H]1[C@H]2CCN(C(=O)c3ncc(-c4ccnc(C#N)c4)o3)[C@H]2CN1C#N (single isomer, unassigned)
Reply: > 30 µM
